Ref: patent US20210246109A1

Biological target: CYP1A1 (Homo sapiens, UniProt P04798)
Construct: expressed in transfected cells
Assay: EROD assay in CYP1A1 counter-screen cell line
Type: cell-based
Conditions: Table 3; read-out: IC50 1A1
reportedMetric: IC50 (µM)

Worked cases, IC50 given:
Assign IC50 to the following record: Fc1ccc(-c2nc3ccccc3[nH]2)cc1
5.2

Give the reported value of IC50 for this record: CC(C)(C)OC(=O)NCCCOc1nc(-c2ccc(OCC#N)cc2)nc2ccccc12
1.28

Supply IC50 value. Item: N#CCOc1ccc(-c2nc(OCCCCCCN=[N+]=[N-])c3ccccc3n2)cc1
1.87

I: COc1cc(-c2nc3ccc(I)cc3c(=O)[nH]2)ccc1OCC#N
II: O=c1[nH]c(-c2ccc3ccccc3n2)nc2ccccc12
III: N#CCOc1ccc(-c2nc3ccccc3c(=O)[nH]2)c(OCC#N)c1
IV: N#CCOc1ccc(/C=C/c2ccc(COC#N)cc2COC#N)cc1
Kindly order the items shown according to IC50, from the highest value down. # the answer lists labels in the order requested
III, IV, II, I

a: N#CCOc1ccc(-c2nc3ccccc3c(=O)[nH]2)cc1
b: COc1ccc(-c2nc3ccccc3c(=O)[nH]2)cc1
Identify the entry with the smaller IC50: a or b . State your choice using its label.
a
(a: 2.57 µM, b: 4.76 µM)

----------
Molecular target: CYP1A1 (Homo sapiens)
Construct: expressed in transfected cells
Sequence (P04798 1-512): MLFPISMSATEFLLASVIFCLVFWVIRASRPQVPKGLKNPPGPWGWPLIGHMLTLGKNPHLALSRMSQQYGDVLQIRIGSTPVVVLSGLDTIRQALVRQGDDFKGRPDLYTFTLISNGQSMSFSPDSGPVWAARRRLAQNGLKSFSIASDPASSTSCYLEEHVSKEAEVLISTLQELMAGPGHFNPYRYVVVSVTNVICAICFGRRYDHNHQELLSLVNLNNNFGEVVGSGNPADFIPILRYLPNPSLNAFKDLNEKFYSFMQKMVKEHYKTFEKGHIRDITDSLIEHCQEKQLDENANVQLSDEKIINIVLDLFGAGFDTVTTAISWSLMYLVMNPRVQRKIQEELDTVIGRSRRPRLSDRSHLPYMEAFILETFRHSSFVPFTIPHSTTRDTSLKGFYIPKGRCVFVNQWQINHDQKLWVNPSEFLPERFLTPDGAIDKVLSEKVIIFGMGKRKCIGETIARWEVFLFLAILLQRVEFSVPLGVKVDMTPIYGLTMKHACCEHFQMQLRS
Assay: EROD assay in CYP1A1 counter-screen cell line
Type: cell-based
Conditions: selectivity index
reportedMetric: SI 1B1:1A1
Provide a numeric answer; units are not to be included.

Solved entries (count: 4):
# return recorded SI 1B1:1A1 for entry C#CCOc1ccc(-c2nc(-c3ccc(C#N)cc3)cs2)cc1
3.44

Answer with the recorded SI 1B1:1A1 for the compound listed here: Oc1ccc(-c2csc(-c3ccccn3)n2)cc1
1.3

Please list SI 1B1:1A1 recorded for the compound N#Cc1ccc(-c2csc(-c3ccc(O)cc3)n2)cc1
17.6

For Oc1ccc(-c2csc(-c3cccnc3)n2)cc1 , write its SI 1B1:1A1.
0.63

***
Give reported SI 1B1:1A1 value for COc1ccc(-c2csc(-c3ccc(O)cc3)n2)c(OC)c1
32

Identify SI 1B1:1A1 associated with the compound N#CCOc1ccc(-c2nc(-c3cccnc3)cs2)cc1
6833

Return SI 1B1:1A1 for the following compound: Oc1ccc(-c2nc(-c3ccc(F)c(C(F)(F)F)c3)cs2)cc1
70.5

Look up SI 1B1:1A1 of COc1ccc(-c2nc(-c3ccc(F)c(C(F)(F)F)c3)cs2)c(OC)c1 and report it.
5187

Quick one: give measured SI 1B1:1A1 for c1ccc(-c2nc(-c3cccnc3)cs2)nc1
0.035

# return recorded SI 1B1:1A1 for input Fc1ccc(-c2csc(-c3ccccn3)n2)cc1C(F)(F)F
2.86

Complete the entry with SI 1B1:1A1 for COc1ccc(-c2csc(-c3cccnc3)n2)c(OC)c1
7.6
